Please find below pKi data on UniProtKB P56817 compiled from the literature.
Answers are plain numbers, as −log10 of the molar value.

* COc1ccc(C(=O)Nc2ccc(F)c([C@@]3(C)NC(=N)N(C)S(=O)(=O)[C@@]34CCN(Cc3cnco3)C4)c2)nc1 | 8.52

State the recorded pKi for every item in the following list.
1. CN1C(=N)N[C@](C)(c2cc(NC(=O)c3ccc(F)cn3)ccc2F)[C@]2(CCN(Cc3cccnc3)C2)S1(=O)=O
2. CN1C(=N)N[C@](C)(c2sc(-c3ncc(-c4ccccc4)[nH]3)cc2Cl)CS1(=O)=O
3. COc1nc(N2C[C@H]3C(=O)N(C)C(=N)N[C@@]3(c3cc(F)ccc3F)C2)nc(C2CC2)c1F
4. CN1C(=N)N[C@](C)(c2sc(-c3cccc(-c4cnco4)c3)cc2Cl)CS1(=O)=O

Response:
1. 8.70
2. 6.95
3. 8.25
4. 8.77

* * *

A compilation of pKi values for Beta-secretase 1 (Homo sapiens) from the published literature.
One number for each entry, as −log10 of the molar value.

- CN1CC2(C1)C(=N)N[C@](C)(c1cc(NC(=O)c3ccc(OCF)cn3)ccc1F)CS2(=O)=O: 8.31
- CC1(C)C(=N)N[C@@]2(CCOc3ccc(NC(=O)c4ccc(OC(F)F)cn4)cc32)CS1(=O)=O: 8.10
- CN1C(=N)N[C@](C)(c2cc(NC(=O)c3ccc(Cl)cn3)ccc2F)C2(CC2)S1(=O)=O: 8.30

Request: Specify measured pKi for C[C@@]1(c2sc(-c3cncc(C#N)c3)cc2Cl)CS(=O)(=O)C2(CCCCC2)C(=N)N1 .
Response: 6.94

* * *

Target or system Beta-secretase 1 (Homo sapiens, UniProt P56817); metric pKi; compiled from varied reports.
Give bare numbers, as −log10 of the molar value.

Study these solved cases before continuing.
• CN1C(=N)N[C@](C)(c2sc3c(-c4ccc(-c5ccnn5C)cc4F)nccc3c2Cl)CS1(=O)=O = 6.71
• COc1ccc(C(=O)Nc2ccc(F)c([C@@]3(C)NC(=N)N(C)S(=O)(=O)[C@@]34CCN(CC3CCOC3)C4)c2)nc1 (stereo partly shown) = 9.00
• COc1ccc(C(=O)Nc2ccc3c(c2)[C@]2(CCC3)CS(=O)(=O)C(C)(C)C(=N)N2)nc1 = 7.51
• CN1C(=N)N[C@](C)(c2sc(-c3nnc(-c4ccc(-n5cccn5)cc4)o3)cc2Cl)CS1(=O)=O = 6.81
• COc1cnc(C(=O)Nc2ccc(F)c([C@]3(C)CN(C)S(=O)(=O)C(C)(C)C(=N)N3)c2)c(C)n1 = 7.21

Request: Please give the documented pKi of COc1cnc(C(=O)Nc2ccc(F)c([C@]3(C)CS(=O)(=O)C4(CN(C)C4)C(=N)N3)c2)c(C)n1
Response: 7.98

* * *

# literature pull: Beta-secretase 1 (Homo sapiens, UniProt P56817) pKi
Give bare numbers, as −log10 of the molar value.

Please review the following examples before continuing.
- Cc1noc(C(=O)Nc2ccc(F)c([C@@]3(C)N=C(N)[C@@](C)(F)CC3(F)F)c2)n1: 7.24
- COc1cnc(C(=O)Nc2ccc(F)c([C@]3(C)CS(=O)(=O)C4(CCC4)C(=N)N3)c2)cn1: 7.93
- CN1C(=N)N[C@](C)(c2sc3c(-c4ccc(-n5ccnn5)cc4)cccc3c2F)CS1(=O)=O: 7.72
- CN1C(=N)N[C@@]2(c3cc(NC(=O)c4ccc(F)cn4)ccc3F)COC[C@H]2S1(=O)=O: 7.89

Here's the next entry for you.
Request: Report pKi, nothing else, for this molecule: CN1C(=N)N[C@](C)(c2sc(-c3cccc(-c4ccccc4)c3)cc2Cl)CS1(=O)=O
Response: 6.79
